B1: TPR t1 (parent)
chain: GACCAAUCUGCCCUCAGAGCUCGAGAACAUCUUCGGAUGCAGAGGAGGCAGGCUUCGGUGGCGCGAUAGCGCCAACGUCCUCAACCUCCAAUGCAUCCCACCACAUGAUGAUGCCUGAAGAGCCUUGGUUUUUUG

- Variants of: B1
- protocol: polymerase ribozyme fitness, log enrichment relative to wild type (log ratio); higher = more active; in vitro selection for triplet polymerase activity
Below, each entry is listed alongside its reported polymerase ribozyme fitness (log ratio).

// below: answered variants
• A2U C13U A41G A43U C49U U92C G93C C115U U131G U132A = -4.38
• C13U C72U U129G = -0.856
• C12A A46U G47C C124G = -0.295
• U14A G36A = -3.62

Request: Given the variant A16C C72G C82G G120C , what is its reported polymerase ribozyme fitness (log ratio)?
Result: -1.82

Request: Ok, now C8U G51U
Result: -2.45

Request: Ok, now G35A C64U A103C G120A
Result: -5.9

Request: Ok, now C12G C115U U133A
Result: -0.348

Request: Ok, now C13G A26G C49A U96A
Result: -5.63

Request: Ok, now A105G G120C
Result: -1.97

Request: Ok, now C4A C72U G117C U131A
Result: -5.79

Request: Ok, now C34G U54G G69U
Result: -5.25

Request: Ok, now C11G A18G C49G C56U
Result: -3.38
